src = a melting point compilation (Tetko et al.; mined from patent text by program, amines drawn as free bases though some values may be those of a salt)

Below: a set of entries, each annotated with reported melting point.
MEASURED ENDPOINT: melting point

* CNC(=NC#N)NCCCCSc1nccc(NC(N)=NCC(F)(F)F)n1 | 179 to 180 °C
* CCOc1ccc2nc(Cl)c(C=NOC)cc2c1 | 142 to 144 °C
* O=S(=O)(NC1C2CCC(C2)C1CO)c1ccccc1 (stereo unspecified) | 118 to 120 °C
* COc1ccc(S(N)(=O)=O)cc1C(=O)NCc1ccc(OCCN(C)C)cc1 | 122 to 123 °C
* CS(=O)CCCn1c(=N)sc2cc(OC(F)(F)F)ccc21 (racemic) | 114 °C
* C[Si](C)(C)CCOC1OC(CO)C(O)C(O)C1N=[N+]=[N-] (stereo unspecified) | 158 to 161 °C
* COCCOc1ccnc(NCc2ccccc2)c1[N+](=O)[O-] | 81 to 83 °C
* C/C(=C(\C#N)C(=S)/N=C/N(C)C)N1CCC(c2ccccc2)CC1 | 151 to 152 °C
* O=C(Cn1c(-c2ccc(C(F)(F)F)cc2)nc2cccnc21)NCc1ccccc1 | 224 to 225 °C
* Cc1cc2c(s1)Nc1ccccc1N=C2N1CCN[C@@H](CO)C1 | 90 °C
* CC(C)=C1Cc2ccc3nc(C)oc3c2C1=O | 156 to 159 °C
* CCOC(=O)/C=C/c1cc(-n2cnnn2)cc(C)c1N | 210 to 211 °C
* CCCCCc1nc2c(N)nc3c(c2n1CCCCNS(C)(=O)=O)CCCC3 | 167 to 168 °C
* COc1ccc2c(C)c(F)ccc2c1C(F)(F)F | 97 to 99 °C
* Cc1ncn(CCCOc2c(C)cc(-c3nnn(C)n3)cc2C)n1 | 101 to 103 °C
* CNC(=O)c1ccc(Nc2nccc(-c3cccnc3)n2)cc1 | 254 to 257 °C

====

Below: a set of entries, each annotated with reported melting point.
MEASURED ENDPOINT: melting point

* O=C(O)c1ccc(NC(=O)c2ccccc2-c2ccccc2)cc1 | 246 to 249 °C
* COC(=O)C1(N(O)C(=O)Cc2c(C)cc(Cl)cc2C)CCN(OC)CC1 | 228 to 231 °C
* O=C(O)COc1ccc(CN2C(=O)C3(COc4cc5c(cc43)OCCO5)c3ccccc32)cc1 (stereo not given) | 223 to 224 °C
* N#Cc1ccc2nc3c(c(=O)n2c1)SCC3 | 261 to 263 °C
* CCCc1c(OCCOCCOc2ccc3ccc(OCC(=O)O)cc3c2C(C)=O)ccc(C(C)=O)c1O | 121 to 122 °C
* O=C(NCCCCCCCCCCCNC(=O)c1ccc(OC(F)(F)F)cc1)c1ccc(OC(F)(F)F)cc1 | 142 °C
* O=C1CCC(N2C=Nc3ccccc3C2)C(=O)N1 (stereo not given) | 258 °C
* Clc1ccc(Nc2nc3ccccc3c3[nH]c(C4CCCC4)nc23)cc1 | 189 to 190 °C
* CCNC(=O)Cc1ccc2ccn(C3CCN(CCc4ccc(F)cc4)CC3)c2c1 | 160 °C
* CN1CCN(CCOc2ccccc2CC(=O)N2C[C@@H]3C(=O)CCC(c4ccccc4)(c4ccccc4)[C@@H]3C2)CC1 (racemic) | 78 °C
* COCCNC(=O)c1cccc(-c2cccc3cc(C(O)c4cccc(C(F)(F)F)c4)sc23)c1 (stereo not given) | 126 to 127 °C
* O=C(O)CCc1cccc(-c2nc(=O)c3ccc(C(F)(F)F)cc3s2)n1 | 193 °C
* CCCCCCCNC(=O)CCCCO | 53 to 54 °C
* CCOC(=O)C1CN(C(=O)C2=Cc3cc(OC)c(OC)cc3CCC2)CCN1 (stereo not given) | 105 to 106 °C
* CC12CCC3C(CCC4CC(I)CCC43C)C1CCC2=O (stereo not given) | 123 to 125 °C
* Cn1cc(-c2ccccc2)c(=O)c(-c2ccc(Br)cc2)c1 | 172 °C
* Cc1ccc(-c2cc3cc(C(=O)Nc4ccc(CN(C)C5CCOCC5)cc4)ccc3o2)cc1 | 233 to 236 °C
* Cc1cc2c(c(C)c1O)C(C)CN2C(=O)C(C)(C)C (stereo not given) | 144 to 145 °C
* CCOC(=O)c1ccc(C=C(C)c2cc3c(cc2C)C(C)(C)CCC3(C)C)cc1 | 109 to 110 °C
* FC(F)(F)c1ccccc1CC[C@H]1CN(Cc2ccccc2)CCN1Cc1ccccc1 | 77 to 82 °C
* Cc1cccc(C(=O)Cc2ccnc(F)c2)c1 | 66 to 67 °C
* Cc1oc(-c2ccccc2)nc1CCc1noc(COc2ccccc2CC(=O)O)n1 | 120 to 121 °C
* Cc1cccc(OCc2cccc(OCc3ccc4ccccc4n3)c2)c1C(=O)O | 154 to 156 °C
* Cc1nc(C(C)(O)c2ccsc2)c(C)o1 (stereo not given) | 83 to 84 °C
* O=C1C(=O)c2ccccc2C2=C1SCC1(CCN(S(=O)(=O)c3ccc(Cl)c(Cl)c3)CC1)O2 | 275 to 276 °C

====

MEASURED ENDPOINT: melting point

- COc1ccc(C(=CC(=O)O)c2ccc(-c3ccccc3)cc2)cc1OC: 178 to 184 °C
- COc1ccc(CCCCOCc2cccc(/C=C/c3cccc(NC(=O)CCC(C)(C)C(=O)O)c3)n2)cc1: 141 to 142 °C
- C#CC1(O)CCC2C3CCC4=CC(=O)CCC4C3CCC21CCC (configuration not stated): 149 to 150 °C
- Fc1ccc2[nH]cc(CCc3ccncc3)c2c1: 128 °C
- CCNc1nc(SC)ncc1CNc1cc(OC)cc(OC)c1Cl: 116 to 118 °C
- CC(=O)OC1OC(C)C(OCc2ccccc2)C(OCc2ccccc2)C1OCc1ccccc1 (configuration not stated): 86 to 87.5 °C
- COC1(c2ccc(Sc3ccc4c(c3)CCC(=O)N4C)s2)CCOCC1: 84 to 86 °C
- Nc1cccc(C(=O)c2cc3c(Oc4ccc(Cl)cc4)cncc3s2)c1: 174 to 178 °C
- CC(C)(C)[C@H](NC(=O)CCC1c2ccccc2-c2ccccc21)C(=O)O: 79 to 83 °C
- CN1CCC(c2ccc(F)cc2)(C(C)(C)O)CC1: 165 to 166 °C
- O=C1OC(=O)c2cc(N3C(=O)CCCC3=O)ccc21: 220 to 222 °C
- COc1ccc(/C=C(\C#N)c2ccc(Cl)c(Cl)c2)cc1OC1CCCC1: 152 to 154 °C
- O=C(NOCC(O)CN1CCCCC1)Nc1cccc([N+](=O)[O-])c1 (configuration not stated): 137 to 139 °C
- CCCc1cc(C(O)=S)cc(N)c1Cc1ccccc1: 151 to 152 °C
- CC(C)Cn1cc(C(=O)O)c2ccc(Cl)cc21: 205 to 206 °C
- CCCc1nn(C)c2c(=O)n(CCCOc3ccc(SC(C)(C)C(=O)OCC)cc3)c(C)nc12: 52 to 54 °C
- CCCCCCCCCCCCCC[C@@H]1CO[C@@H](CO)C1 (relative stereo): 27.1 to 27.7 °C

====

Below: a set of entries, each annotated with reported melting point.
MEASURED ENDPOINT: melting point

- Cn1cc(C(=O)NCc2ccc(Cl)cc2)c(=O)c2cc(CN3CCC[C@@H]3[C@@H](O)c3ccccc3)sc21 (relative stereo): 158 to 162 °C
- CCC1(CC)c2cc(Br)ccc2-c2ccc(-c3nc4ccccc4s3)cc21: 134 to 135 °C
- CC(C)(C#N)CNC(=O)c1n[nH]cc1NC(=O)c1ccccn1: 238 to 240 °C
- CCOC(=O)C(=NO)c1cccnc1: 137 to 138 °C
- CCCCCCCCCCCCCS(=O)c1nc(NC(=O)Nc2c(C(C)C)cccc2C(C)C)n[nH]1 (stereo not drawn): 178 to 181 °C
- CC(C)c1ccc(S(=O)(=O)n2c(CCCC(=O)O)cc3nc(C(F)(F)F)ccc32)cc1: 144 °C
- CCCCc1nn(-c2cc(N)ccc2Cl)c(=O)n1Cc1ccc(-c2cc(CCC)ccc2S(=O)(=O)NC(C)(C)C)cc1F: 85 to 87 °C
- CN(Cc1cc(C(F)(F)F)cc(C(F)(F)F)c1)C(=O)c1nc(NCc2ccccc2)ncc1-c1ccccc1: 128 to 130 °C

====

Below: a set of entries, each annotated with reported melting point.
MEASURED ENDPOINT: melting point

- OC1(C#Cc2ccc(-c3ccccc3)cc2)CN2CCC1CC2 (centres undefined): 217 to 218 °C
- O=C(NC1CCS(=O)(=O)CC1)NC12CC3CC(CC(C3)C1)C2: 244 to 246 °C
- COc1ccc2c(c1)C(Cc1ccnc(F)c1)(Cc1ccnc(F)c1)c1cccnc1O2: 196 to 197 °C
- CNC(=O)Nc1ccc(N2CCN(c3ccncc3)CC2)cc1: 258 to 260 °C
- CC1CCC(c2ccc(Cl)c(Cl)c2)=NN1S(=O)(=O)c1ccc(I)cc1 (centres undefined): 194 to 196 °C
- CC(=O)OCC1OC(n2ncc(C#N)n2)C(OC(C)=O)C1OC(C)=O (centres undefined): 77 to 79 °C
- CC1CC=C(c2nnn(C)n2)CN1C (centres undefined): 93 to 95 °C
- C=C(C)CNc1cc(C(=O)O)cc(S(N)(=O)=O)c1Sc1ccc(N)cc1: 237 to 240 °C
- CN1CCN(c2ccc3[nH]c(=O)c(-c4csc(-c5ccncc5)n4)c(N)c3c2)CC1: > 220 °C
